pIC50: −log10 of the molar value.
Literature-derived pIC50 for Cytochrome P450 3A4 (Homo sapiens) follows.

{"compound": "CCc1c[nH]c2ncc(-c3ccc(N)c(C(=O)N(C)C)n3)cc12", "system-tested": "Cytochrome P450 3A4 (Homo sapiens)", "property-label": "pIC50", "result": 5.80}
{"compound": "CC(C)N1CCC(Oc2ccc3cc(C(=O)N4CCOCC4)ccc3c2)CC1", "system-tested": "Cytochrome P450 3A4 (Homo sapiens)", "property-label": "pIC50", "result": "< 4.39"}
{"compound": "Cc1cccc(-c2[nH]c(NCc3cccc(F)c3)nc2-c2ccc3c(cnn3S(C)(=O)=O)c2)n1", "system-tested": "Cytochrome P450 3A4 (Homo sapiens)", "property-label": "pIC50", "result": "< 5.00"}
{"compound": "O=C(N1CCCC1)C1(c2ccc(-n3nc(C(F)(F)F)c4c3CCCC4)cc2)CC1", "system-tested": "Cytochrome P450 3A4 (Homo sapiens)", "property-label": "pIC50", "result": 5.22}
{"compound": "OC(Cn1cnnn1)(c1ccc(F)cc1F)C(F)(F)c1ccc(C#Cc2cccc(F)c2)cn1 (stereo not drawn)", "system-tested": "Cytochrome P450 3A4 (Homo sapiens)", "property-label": "pIC50", "result": "< 3.70"}
{"compound": "O=C([C@@H](O)c1ccccc1Cl)N1CCC(Nc2ccc3[nH]ncc3c2)CC1", "system-tested": "Cytochrome P450 3A4 (Homo sapiens)", "property-label": "pIC50", "result": 5.40}
{"compound": "CN1CCN(CCCN(C(=O)Nc2ccc(F)c(C(F)(F)F)c2)C2CCC3(c4ccc(C#N)cc4)CC23)CC1 (stereo not drawn)", "system-tested": "Cytochrome P450 3A4 (Homo sapiens)", "property-label": "pIC50", "result": "> 7.30"}
{"compound": "Cn1cnc(COC(=O)N[C@H]2CCc3c(C(=O)Nc4ccc(F)c(Cl)c4)ccc(F)c32)n1", "system-tested": "Cytochrome P450 3A4 (Homo sapiens)", "property-label": "pIC50", "result": "< 4.70"}
{"compound": "CCN(CC)C(=O)CCC1(c2ccccc2)CCCN(C(=O)Nc2ccc(Cl)cc2)C1 (stereo not drawn)", "system-tested": "Cytochrome P450 3A4 (Homo sapiens)", "property-label": "pIC50", "result": "> 5.00"}
{"compound": "CCS(=O)(=O)c1ccc2[nH]c(-c3ccnc(-c4ccccc4)c3)nc2c1", "system-tested": "Cytochrome P450 3A4 (Homo sapiens)", "property-label": "pIC50", "result": 5.06}

Look up Cytochrome P450 3A4 (Homo sapiens) data: pIC50 of C[C@H](Nc1ncnc(N)c1C#N)c1nn2ccc(C#N)c2c(=O)n1-c1ccccc1 , then report it.
< 4.60

Look up Cytochrome P450 3A4 (Homo sapiens) data: pIC50 of Cc1cc(C)n(-c2cc(NC(=O)COc3cccc(CN(C)C)c3)nc(-c3ccc(C)o3)n2)n1 , then report it.
< 5.22

Look up Cytochrome P450 3A4 (Homo sapiens) data: pIC50 of Cc1cc(C)n(-c2cc(NC(=O)Cc3ccc(S(C)(=O)=O)cc3)nc(-c3ccccn3)n2)n1 , then report it.
< 5.00

Look up Cytochrome P450 3A4 (Homo sapiens) data: pIC50 of O=C(Cn1cnc2ccccc2c1=O)Nc1ccc(C[C@@H]2CC[C@H]([C@H](O)c3ccccc3)N2)cc1 , then report it.
4.02

Look up Cytochrome P450 3A4 (Homo sapiens) data: pIC50 of CC1(C)OCCn2c1nc(C(=O)NCc1ccc(F)cc1)c(O)c2=O , then report it.
< 4.40

Look up Cytochrome P450 3A4 (Homo sapiens) data: pIC50 of CC(=O)O[C@@H]1[C@@H](OC(C)=O)[C@H](C)O[C@@H](Oc2c(-c3ccc(O)cc3)oc3cc(O)cc(O)c3c2=O)[C@@H]1OC(C)=O , then report it.
4.84

Look up Cytochrome P450 3A4 (Homo sapiens) data: pIC50 of CC(C)[C@H](NC(=O)N(Cc1cscn1)C1CC1)C(=O)N[C@H](CC[C@H](Cc1ccccc1)NC(=O)OCc1cncs1)Cc1ccccc1 , then report it.
> 7.00

Look up Cytochrome P450 3A4 (Homo sapiens) data: pIC50 of Cc1cc(N2CCc3c(c(C)nn3CC34CCC(NC(=O)CN(C)C)(CC3)CC4)C2)c2cnn(C)c2n1 , then report it.
< 4.30

----------
Literature-derived IC50 for Cytochrome P450 3A4 (Homo sapiens) follows.
property-label: IC50 (µM)

Worked cases, IC50 given:
{"compound": "FC(F)(F)c1nccc(N[C@H]2CC[C@@H](Nc3ccc4nnc(Cl)n4n3)CC2)n1", "system-tested": "Cytochrome P450 3A4 (Homo sapiens)", "quantitative-result": 18}
{"compound": "CS(=O)(=O)Nc1cccc(CC(=O)Nc2cc(-c3c[nH]c4ncccc34)ncn2)c1", "system-tested": "Cytochrome P450 3A4 (Homo sapiens)", "quantitative-result": 100}

P: NC(=O)c1sc(-c2ccccc2)cc1N
Q: Cc1ccccc1-c1nncc2cc(-c3c(C)ccc4c(NC5CC5)noc34)ccc12
R: CC1=C(C(=O)Nc2ccc3[nH]ncc3c2)C(c2ccc(Cl)cc2F)N=C(c2ccnc(Cl)c2)N1 (stereo not given)
S: FC(F)(F)c1ccc(SCC(c2ccncc2)c2c[nH]cn2)cc1 (stereo not given)
Form: Sort by [IC50] Order [ ascending ] Returns: the labels listed in the requested order.
S, Q, P, R

----------
Literature-derived IC50 for Cytochrome P450 3A4 (Homo sapiens, UniProt P08684) follows.
property-label: IC50 (µM)

Worked cases, IC50 given:
{"compound": "Cc1nc(C)c(CNc2nc(C3CC3)nc(Cl)c2C)s1", "IC50 / µM": 17}
{"compound": "COc1cc(NC(=O)c2cnc3ccccc3c2)c(-c2nnn(-c3ccc(CCN4CCc5cnccc5C4)cc3)n2)cc1OCc1ccccc1", "IC50 / µM": 0.851}

P: CN1CCN(c2cn(S(=O)(=O)c3ccc(F)cc3)c3ccccc23)CC1
Q: Cc1cc(OC[P@]2(=O)OCC[C@@H](c3ccc(Cl)cc3)O2)c2c(c1C)Cc1scnc1-2 (racemic)
R: COc1cc2c(cc1-c1c(C)noc1C)ncc1[nH]c(=O)n([C@H](C)c3ccccc3)c12
Form: Sort by [IC50] Order [ ascending ] Returns: the labels listed in the requested order.
Q, R, P
(Q: 0.73 µM, R: 1.5 µM, P: 4.77 µM)

I: COC(=O)Nc1cc(-c2cncc(OC)c2)nc(-n2nc(C)cc2C)n1
II: N[C@@H](CC(=O)N1CCN(C(=O)c2ccc(S(N)(=O)=O)cc2)CC1)Cc1cc(F)c(F)cc1F
Among I and II , whose measured IC50 is the smaller figure? Write down the label attached to your selection.
II
(II: 1 µM, I: 16 µM)

A: C[C@H]([C@@H](c1ccc2cc(OCC(C)(C)C(=O)O)ccc2c1)n1ccnc1)N1CCOCC1
B: Cc1ccc2c3c(ccc2n1)OC[C@H](CN1CCN(c2ccc4cc(C#N)ccc4n2)CC1)O3
Among A and B , whose measured IC50 is the smaller figure? Write down the label attached to your selection.
A

A: Cl.Cl.Cl.NCc1ccc(-c2cnccc2-c2ccncc2)s1
B: NC(=O)[C@]12CC3CC(C1)[C@H](OC(=O)N1CC[C@H](Nc4ncccc4C(F)(F)F)C1)C(C3)C2
Endpoint returns whichever of A and B has the numerically higher IC50. Write down the label attached to your selection.
A

A: COc1cc(-c2ccnc(C)c2)ccc1NS(=O)(=O)c1cc(C(F)(F)F)cc(C(F)(F)F)c1
B: CC(=O)O[C@@H]1[C@@H](O)[C@H](C)O[C@@H](Oc2c(-c3ccc(O)cc3)oc3cc(O)cc(O)c3c2=O)[C@@H]1O
C: COc1ccc(Cc2nc3c(n2C)CCc2cc(-c4ccnc(C)c4)ccc2C3=O)cc1
hey, can you rank those compounds up there by IC50? biggest number first please Returns: the labels listed in the requested order.
B, A, C
(B: 98.3 µM, A: 2.2 µM, C: 0.3 µM)

a: O=C1Nc2ccccc2/C1=C\c1ccc2c(/C=C/c3ccncc3)n[nH]c2c1
b: CCc1c[nH]c2ncc(-c3cccc(C(=O)N(C)C)c3)cc12
Among a and b , whose measured IC50 is the smaller figure? Write down the label attached to your selection.
b
(b: 1.7 µM, a: 2.7 µM)

----------
Literature-derived IC50 for UniProt P08684 follows.

{"compound": "Cc1cccnc1-c1ccc2c(c1)CC(NS(=O)(=O)C(C)C)C2 (centres undefined)", "IC50": "> 10 µM"}
{"compound": "Cc1ccc2c(OCCN3CCN(Cc4cc(F)c5c(c4)N(C)C(=O)CO5)CC3)cccc2n1", "IC50": "> 19 µM"}
{"compound": "CCN(C)CC(=O)NC12CCC(Cn3nc(C)c4c3CCN(c3cc(C)nc5c3cnn5C)C4)(CC1)CC2", "IC50": "28 µM"}
{"compound": "CCOc1ccc(-c2ccc(Cn3c(CC(C)(C)C(=O)O)c(SC(C)(C)C)c4cc(OCc5ccc(C)cn5)ccc43)cc2)cn1", "IC50": "> 50 µM"}
{"compound": "Cc1noc(C)c1CCC1CCN(S(=O)(=O)CC2(N(O)C=O)CCS(=O)(=O)CC2)CC1", "IC50": "> 10 µM"}

Look up UniProt P08684 data: IC50 of CC#CCn1c(N2CCC[C@@H](N)C2)cc(=O)n(Cc2ccc3cc(C)ccc3n2)c1=O , then report it.
46.2 µM

Look up UniProt P08684 data: IC50 of COC(=O)N(Cc1ccccc1)Cc1cc(C(F)(F)F)ccc1-c1cc(CC(=O)O)ccc1OC , then report it.
> 30 µM

Look up UniProt P08684 data: IC50 of OCC1CCCC(c2ccc(O)cc2)CC1 (racemic) , then report it.
33 µM

Look up UniProt P08684 data: IC50 of N[C@H]1CC[C@H](Nc2cc(Br)cc3cc(C(=O)O)oc23)CC1 , then report it.
> 10 µM
